B1: Azoarcus group I ribozyme (parent)
chain: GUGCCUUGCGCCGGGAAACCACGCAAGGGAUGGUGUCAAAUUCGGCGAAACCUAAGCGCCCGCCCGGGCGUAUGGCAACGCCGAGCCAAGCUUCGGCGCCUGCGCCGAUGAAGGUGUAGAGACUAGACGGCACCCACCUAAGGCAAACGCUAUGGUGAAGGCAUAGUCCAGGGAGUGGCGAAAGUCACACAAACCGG

Variants of: B1
Assay: reverse-splicing fitness (ratio to wild type); higher = more active; in vitro selection; Mg2+ level not given
measured-metric: reverse-splicing fitness
// return a plain number; no unit text

Q. Return reverse-splicing fitness (reported value) for this variant: C82U A111C A120U A145C C150G U176C
A. 0.00485

Q. Return reverse-splicing fitness (reported value) for this variant: C82G A111G A120G A145G C150A U176A
A. 0.0107

Q. Return reverse-splicing fitness (reported value) for this variant: C82G A111U A120C C169U U176A
A. 0.0163

Q. Return reverse-splicing fitness (reported value) for this variant: C82A A111U A145C C150A U176C
A. 0.0157

Q. Return reverse-splicing fitness (reported value) for this variant: A145U C150U U176G
A. 0.342

Q. Return reverse-splicing fitness (reported value) for this variant: A111G A120G A145C C169A
A. 0.158

Q. Return reverse-splicing fitness (reported value) for this variant: C82A A111G A120U
A. 0.0351

Q. Return reverse-splicing fitness (reported value) for this variant: C82G A111C A120U A145U C150A C169U U176C
A. 0.00353

Q. Return reverse-splicing fitness (reported value) for this variant: A111U A120G A145C C150U C169U U176C
A. 0.0209

Q. Return reverse-splicing fitness (reported value) for this variant: C82U A111U A145C C150G C169U U176C
A. 0.00969

Q. Return reverse-splicing fitness (reported value) for this variant: C82A A120U A145G C169U
A. 0.0064
